Reported IC50 values for a set of compounds
target: full-length beta-Catenin (Uniprot ID P35222) (Homo sapiens)
Construct: 10 nM full-length beta-Catenin (Uniprot ID P35222)
Sequence (P35222 1-781): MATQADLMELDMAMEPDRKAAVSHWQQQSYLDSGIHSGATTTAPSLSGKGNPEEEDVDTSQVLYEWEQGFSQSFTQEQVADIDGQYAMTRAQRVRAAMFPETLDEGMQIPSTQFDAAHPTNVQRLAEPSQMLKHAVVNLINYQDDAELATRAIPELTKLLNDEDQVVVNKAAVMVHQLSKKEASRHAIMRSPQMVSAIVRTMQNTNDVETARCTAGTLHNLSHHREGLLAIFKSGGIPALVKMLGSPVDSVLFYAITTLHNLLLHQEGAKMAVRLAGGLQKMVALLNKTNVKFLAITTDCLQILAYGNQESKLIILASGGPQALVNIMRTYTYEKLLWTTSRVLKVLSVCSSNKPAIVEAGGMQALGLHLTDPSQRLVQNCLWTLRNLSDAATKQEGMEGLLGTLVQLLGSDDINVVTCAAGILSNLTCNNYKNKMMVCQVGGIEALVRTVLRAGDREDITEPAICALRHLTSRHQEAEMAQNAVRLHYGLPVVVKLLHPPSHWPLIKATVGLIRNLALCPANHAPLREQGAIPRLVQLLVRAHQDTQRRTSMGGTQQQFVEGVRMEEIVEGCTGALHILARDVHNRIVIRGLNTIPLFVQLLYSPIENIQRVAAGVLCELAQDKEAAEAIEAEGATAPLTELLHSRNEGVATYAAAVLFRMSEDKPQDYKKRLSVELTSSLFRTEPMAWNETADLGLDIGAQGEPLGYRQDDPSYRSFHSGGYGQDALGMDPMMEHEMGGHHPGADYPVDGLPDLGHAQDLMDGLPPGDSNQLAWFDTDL
assay_name: Fluorescence polarization IC50 (beta-catenin / 5FAM-TCF4 10-53 competition)
Assay type: binding
condition_info: fluorescence polarization, beta-catenin; read-out: FP EC50
Field: numeric (nM). Do not append units.

compound | IC50 [nM]
CC(=O)N1CCC[C@]12CC=CCCCC1(CCCC=CCCCCCC[C@@](C)(C(=O)N[C@@H](Cc3ccsc3)C(=O)N[C@@H](Cc3csc4ccccc34)C(=O)N[C@@H](CCC(N)=O)C(N)=O)NC(=O)[C@H](CC(N)=O)NC(=O)[C@H](Cc3ccccc3)NC(=O)[C@H](C)NC(=O)[C@H](C)NC(=O)[C@H](CN(CCCC(F)(F)F)CC(=O)O)NC(=O)[C@H](CC(=O)O)NC1=O)NC(=O)[C@H](CC(C)(C)C)NC(=O)[C@H](CC(=O)O)NC2=O (stereo partly drawn) [I-1454] | 22
CC(=O)N1CCC[C@]12CC=CCCCC1(CCCC=CCCCOC(=O)N3CC[C@@](C(=O)N[C@@H](Cc4ccccc4)C(=O)N[C@@H](Cc4csc5ccccc45)C(=O)N[C@@H](CCC(N)=O)C(N)=O)(C3)NC(=O)[C@H](CC(C)C)NC(=O)[C@H](Cc3ccccc3)NC(=O)[C@H](C)NC(=O)[C@H](C)NC(=O)[C@H]([C@@H](C)O)NC(=O)[C@H](CC(N)=O)NC1=O)NC(=O)[C@H](C)NC(=O)[C@H](CC(=O)O)NC2=O (stereo partly drawn) | 3780

Task: Param readout= IC50; system= full-length beta-Catenin (Uniprot ID P35222) (Homo sapiens); entry= CC(=O)N1CCC[C@]12CC=CCCCC1(CCCC=CCCCCCC[C@@](C)(C(=O)N[C@@H](Cc3ccccc3Cl)C(=O)N[C@@H](Cc3csc4ccccc34)C(=O)N[C@@H](C(N)=O)[C@H](C)O)NC(=O)[C@H]([C@@H](C)O)NC(=O)[C@H](Cc3ccccc3)NC(=O)[C@H](C)NC(=O)[C@H](C)NC(=O)[C@H](CCC(=O)O)NC(=O)[C@H](CC(=O)O)NC1=O)NC(=O)[C@H](CC(C)(C)C)NC(=O)[C@H](CC(=O)O)NC2=O (stereo partly drawn) [I-1093] ; returns value.
Result: 43
